Readings of viability for the listed compounds
assay: SK-BR-3 cell growth inhibitors, pilot screen, 24 h, human (AID 572); settings: SK-BR-3 viability, CellTiter-Glo luminescence, at 10 µM, stronger effect = lower value;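 further: compound exposure lasted between 18 and 24 h rather than exactly 24 h; 100% = carrier-treated control wells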
Enter your answer as a number in %; do not include the unit.

// known answers, use as guide
{"compound": "CCOC(=O)c1sc2nc(C)cc(C)c2c1N", "reading unit": "%", "viability": 105}
{"compound": "COc1ccc(Cl)cc1NC(=O)c1oc(C)nc1C", "reading unit": "%", "viability": 91}
{"compound": "Cc1oc(C(=O)O)cc1CSCc1cc(C(=O)O)c(C)o1", "reading unit": "%", "viability": 104}
{"compound": "COc1ccc(C(CC(=O)O)NC(=O)c2ccccc2)cc1OC (stereo unspecified)", "reading unit": "%", "viability": 110}
{"compound": "Cc1ccc(NC(=O)CSc2nnc(CNC(=O)c3c(F)cccc3Cl)o2)cc1", "reading unit": "%", "viability": 80}

Inquiry: Using the record for O=c1c2nnn(Cc3ccc(Cl)cc3)c2ncn1Cc1ccc(F)cc1 , report its viability.
Reply text: 124
